B1: HDV Ribozyme (parent)
chain: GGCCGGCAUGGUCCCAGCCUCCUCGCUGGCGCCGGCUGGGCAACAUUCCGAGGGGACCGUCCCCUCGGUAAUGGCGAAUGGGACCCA

Variants of: B1
Experiment: self-cleavage, relative activity (ratio to wild type); higher = more cleavage; co-transcriptional
readout_name: self-cleavage
Number, no unit, nothing else.

Need self-cleavage of U65G A77G , thanks.
0.831

Need self-cleavage of G25A A87U , thanks.
0.277

Need self-cleavage of G17U C21G , thanks.
0

Need self-cleavage of C32U G39U , thanks.
0.486

Need self-cleavage of C30A G35C , thanks.
0.0678

Need self-cleavage of U37A C66A , thanks.
0.29

Need self-cleavage of U60C G73C , thanks.
0.465

Need self-cleavage of C58U A78G , thanks.
0.77

Need self-cleavage of G11U A16U , thanks.
0.673

Need self-cleavage of C13A U79G , thanks.
0.151

Need self-cleavage of C14G C30G , thanks.
0.0692

Need self-cleavage of C32A A56U , thanks.
0.369

Need self-cleavage of C63A G81A , thanks.
0.446

Need self-cleavage of C13G G68C , thanks.
0

Need self-cleavage of U9G U12C , thanks.
0.923

Need self-cleavage of C58A G67C , thanks.
0.886

Need self-cleavage of C62U U65G , thanks.
0.631

Need self-cleavage of C22G U65G , thanks.
0.155

Need self-cleavage of U60C G73U , thanks.
0.352

Need self-cleavage of U23A U72G , thanks.
0.302

Need self-cleavage of C18G G50C , thanks.
0

Need self-cleavage of U12A G29A , thanks.
0.113

Need self-cleavage of C33G G80A , thanks.
0.0631

Need self-cleavage of C4U U69G , thanks.
0.831

Need self-cleavage of U27C U37G , thanks.
0.0923

Need self-cleavage of G28C U69G , thanks.
0.156

Need self-cleavage of C18G C58U , thanks.
0.0978

Need self-cleavage of G67U G74U , thanks.
0.453

Need self-cleavage of U9C U60A , thanks.
0.862

Need self-cleavage of G38U G76A , thanks.
0.145

Need self-cleavage of G28A U79A , thanks.
0

Need self-cleavage of A43U C62A , thanks.
0.499

Need self-cleavage of C24G C48G , thanks.
0.0941

Need self-cleavage of U12G G25A , thanks.
0.151

Need self-cleavage of C41G C57G , thanks.
0.804

Need self-cleavage of G34A G55A , thanks.
0.17

Need self-cleavage of C30G U47A , thanks.
0.0354

Need self-cleavage of G40A C49A , thanks.
0.95

Need self-cleavage of U37G A51G , thanks.
0.0639

Need self-cleavage of G10U C19G , thanks.
0.1

Need self-cleavage of C41G C66U , thanks.
0.683

Need self-cleavage of C22G G53U , thanks.
0.0563

Need self-cleavage of C13U G74A , thanks.
0.131

Need self-cleavage of G80C C86U , thanks.
0.3

Need self-cleavage of C13A U46G , thanks.
0.0594

Need self-cleavage of U60A C85G , thanks.
0.673
